Values compiled from ChEMBL document CHEMBL4619719.

Test system: SW480
Experiment: Antiproliferative activity against human SW480 cells assessed as reduction in cell viability at 20 uM measured after 72 hours by MTT assay relative to control
Type: functional
assay-metric: fold change (FC)

CC[C@@]1(O)C(=O)OCc2c1cc1n(c2=O)Cc2cc3ccccc3nc2-1 :: 0.3
O=c1c2ccccc2nc2n1Cc1cc3cccc(F)c3nc1-2 :: 0.88
COc1cc(OC)c2cc3c(nc2c1)-c1nc2ccc(Br)cc2c(=O)n1C3 :: 0.89
Nc1ccc2nc3n(c(=O)c2c1)Cc1cc2cccc(N)c2nc1-3 :: 0.31
COc1cc(OC)c2cc3c(nc2c1)-c1nc2ccc(N)cc2c(=O)n1C3 :: 0.98
Nc1cccc2cc3c(nc12)-c1nc2ccccc2c(=O)n1C3 :: 0.58
COc1cc(OC)c2cc3c(nc2c1)-c1nc2ccc(I)cc2c(=O)n1C3 :: 0.99
O=c1c2ccccc2nc2n1Cc1cc3ccccc3nc1-2 :: 0.91
Nc1ccc2nc3c(cc2c1)Cn1c-3nc2ccccc2c1=O :: 0.24

###

Each record here notes measured fold change (FC).
Tested on: HL-60
Assay: Antiproliferative activity against human HL60 cells assessed as reduction in cell viability at 20 uM measured after 72 hrs by MTT assay relative to control
Type: functional
assay-metric: fold change (FC)

Nc1ccc2nc3n(c(=O)c2c1)Cc1cc2cccc(N)c2nc1-3 :: 0.01
O=c1c2ccccc2nc2n1Cc1cc3cccc(F)c3nc1-2 :: 0.61
O=c1c2ccccc2nc2n1Cc1cc3ccccc3nc1-2 :: 0.83
COc1cc(OC)c2cc3c(nc2c1)-c1nc2ccc(I)cc2c(=O)n1C3 :: 0.83
COc1cc(OC)c2cc3c(nc2c1)-c1nc2ccc(N)cc2c(=O)n1C3 :: 0.73

###

Test system: HL-60
Assay: Antiproliferative activity against human HL60 cells assessed as reduction in cell viability at 20 uM measured after 72 hrs by MTT assay relative to control
Assay type: functional
assay-metric: fold change (FC)

COc1ccc2nc3c(cc2c1)Cn1c-3nc2ccc(Br)cc2c1=O :: 0.82
Nc1cccc2cc3c(nc12)-c1nc2ccccc2c(=O)n1C3 :: 0.02
Nc1ccc2nc3c(cc2c1)Cn1c-3nc2ccccc2c1=O :: 0.26
CC[C@@]1(O)C(=O)OCc2c1cc1n(c2=O)Cc2cc3ccccc3nc2-1 [CAMPTOTHECIN] :: 0
